# assayExplanation: Solubility measurement (DMSO solution method), McIlvaine buffer pH 4.5 or 6.8
# Format: physicochemical
# conditionSummary: aqueous buffer, kinetic from dmso stock; McIlvaine buffer pH 4.5; DMSO stock diluted to 250 μM; 24 h shaking at ambient temperature; read-out: solubility pH 4.5
assayMetric: solubility at 24 h

Answer with the recorded solubility at 24 h of C[C@H](Oc1cc(-n2ccc(C(=O)NC3(C)COC3)n2)nc(-c2noc3c2CCC[C@@]32CCCc3sc(N)c(C#N)c32)n1)[C@@H]1CCCN1C only.
> 194 µg/mL

Determine its reported solubility at 24 h: C[C@H](Oc1cc(N2CC3CCC(C2)N3)nc(-c2noc3c2CCC[C@@]32CCCc3sc(N)c(C#N)c32)n1)[C@@H]1CCCN1C
> 146 µg/mL

Indicate its recorded solubility at 24 h; the compound in question is [2H]C([2H])([2H])N1C[C@H](F)C[C@H]1[C@H](C)Oc1cc(N2CCN(C)C3(CC3)C2)nc(-c2noc3c2CCC[C@@]32CCCc3sc(N)c(C#N)c32)n1
> 150 µg/mL

Annotate the compound C[C@H](Oc1cc(N2CC[C@@H](O)C2)nc(-c2noc3c2CCC[C@@]32CCCc3sc(N)c(C#N)c32)n1)[C@@H]1CCCN1C with its measured solubility at 24 h.
> 117 µg/mL

Provide only the value of recorded solubility at 24 h for C[C@H](Oc1cc(-c2cnn(C)n2)nc(-c2noc3c2CCC[C@@]32CCCc3sc(N)c(C#N)c32)n1)[C@@H]1C[C@@H](F)CN1C
> 133 µg/mL

Note solubility at 24 h for the compound shown: C[C@H](Oc1cc(N2CCN[C@@H](C)C2)nc(-c2noc3c2CCC[C@@]32CCCc3sc(N)c(C#N)c32)n1)[C@@H]1CCCN1C
> 140 µg/mL

Please look at this compound and report its solubility at 24 h: C[C@H](Oc1cc(-n2ccnc2)nc(-c2onc3c2CCC[C@@]32CCCc3sc(N)c(C#N)c32)n1)[C@@H]1CCCN1C
> 157 µg/mL

---

# assayExplanation: Plasma protein binding assay (PPB), equilibrium dialysis, 10% FCS in PBS
# Format: in vitro ADME
# conditionSummary: bovine, read-out: PPB 10% FCS (% fu)
assayMetric: fraction unbound
# respond with the number and nothing more

[[record]]
mol = "[2H]C([2H])([2H])N1C[C@H](F)C[C@H]1[C@H](C)Oc1cc(N2CCNC3(CC3)C2)nc(-c2noc3c2CCC[C@@]32CCCc3sc(N)c(C#N)c32)n1"
assaymetric = "fraction unbound"
resultnumber = 0.15

[[record]]
mol = "CO[C@H]1CCN(C)[C@@H]1[C@H](C)Oc1cc(-n2ccc(C(=O)N[C@@H]3CCOC3)n2)nc(-c2noc3c2CCC[C@@]32CCCc3sc(N)c(C#N)c32)n1"
assaymetric = "fraction unbound"
resultnumber = 0.04


Query compound follows.
Please give the documented fraction unbound of C[C@H](Oc1cc(-c2cn(C3COC3)nn2)nc(-c2noc3c2CCC[C@@]32CCCc3sc(N)c(C#N)c32)n1)[C@@H]1CCCN1C
0.28

The origin of these recorded values is patent US20240174690A1.
